Recorded values, source the supplement of paper PMC10567573.

B1: POMT2 (parent)
chain: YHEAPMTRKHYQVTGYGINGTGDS

variants of: B1; experiment: protein stability index of a GFP-peptide fusion (GPS, HEK-293T) (PSI 1-6); higher = more stable; conditions: c terminus: a fixed tail appended;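 further: lentivirally expressed fusions sorted by FACS into six bins by GFP to DsRed ratio, PSI derived from sequencing read proportions per bin multiplied by bin number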
Label scheme for protein stability index: lower than 2 is -1, 2 and above is 1.

For orientation, consider the following solved cases.
{"Var": "H10C", "Assigned Category": 1}
{"Var": "E3F", "Assigned Category": -1}
{"Var": "A4V", "Assigned Category": 1}
{"Var": "E3Q", "Assigned Category": -1}
{"Var": "I18H", "Assigned Category": 1}

Reported protein stability index reaches at least 2 for G22D ? 1

Reported protein stability index reaches at least 2 for H2Y ? 1

Reported protein stability index reaches at least 2 for G15T ? 1

Reported protein stability index reaches at least 2 for G20H ? 1

Reported protein stability index reaches at least 2 for G20N ? 1

Reported protein stability index reaches at least 2 for Y11H ? 1

Reported protein stability index reaches at least 2 for Y16I ? 1

Reported protein stability index reaches at least 2 for G15V ? -1
